Target: Tyrosine-protein kinase JAK1 (Homo sapiens)
Sequence (P23458 whole entry): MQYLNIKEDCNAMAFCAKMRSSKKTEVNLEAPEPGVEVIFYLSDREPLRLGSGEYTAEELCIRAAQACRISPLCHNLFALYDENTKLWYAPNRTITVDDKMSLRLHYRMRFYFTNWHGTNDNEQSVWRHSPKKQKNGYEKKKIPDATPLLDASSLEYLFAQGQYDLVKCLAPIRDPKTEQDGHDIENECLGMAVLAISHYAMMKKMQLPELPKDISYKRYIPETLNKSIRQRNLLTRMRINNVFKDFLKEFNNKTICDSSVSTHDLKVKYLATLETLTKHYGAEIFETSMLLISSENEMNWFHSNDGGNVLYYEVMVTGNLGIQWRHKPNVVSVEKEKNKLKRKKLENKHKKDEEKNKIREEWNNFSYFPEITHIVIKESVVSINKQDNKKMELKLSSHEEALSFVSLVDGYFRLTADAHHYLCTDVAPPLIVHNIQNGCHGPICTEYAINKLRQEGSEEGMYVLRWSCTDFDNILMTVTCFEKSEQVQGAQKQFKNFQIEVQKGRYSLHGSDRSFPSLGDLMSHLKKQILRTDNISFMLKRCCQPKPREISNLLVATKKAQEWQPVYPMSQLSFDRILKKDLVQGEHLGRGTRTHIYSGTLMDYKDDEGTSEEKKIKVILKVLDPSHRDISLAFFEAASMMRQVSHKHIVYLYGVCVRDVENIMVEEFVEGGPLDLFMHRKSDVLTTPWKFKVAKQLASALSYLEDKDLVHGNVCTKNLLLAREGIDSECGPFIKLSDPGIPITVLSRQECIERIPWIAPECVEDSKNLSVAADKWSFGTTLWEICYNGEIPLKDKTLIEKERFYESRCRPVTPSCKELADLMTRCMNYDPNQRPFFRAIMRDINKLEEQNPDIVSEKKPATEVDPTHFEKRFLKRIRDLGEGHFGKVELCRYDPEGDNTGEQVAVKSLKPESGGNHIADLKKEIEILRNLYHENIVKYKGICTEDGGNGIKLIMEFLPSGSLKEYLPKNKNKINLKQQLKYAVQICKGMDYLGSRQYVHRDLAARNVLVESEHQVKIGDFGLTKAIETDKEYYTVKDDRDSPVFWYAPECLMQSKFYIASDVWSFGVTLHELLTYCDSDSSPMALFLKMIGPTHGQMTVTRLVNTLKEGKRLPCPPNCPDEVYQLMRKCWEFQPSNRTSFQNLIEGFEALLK
property_label: pIC50
Entry type: numeric. Quantity: pIC50, the -log10 of concentration in molar units.

## Input Given the entry N#C[C@H]1CCOC[C@@H]1n1cc(C(N)=O)c(Nc2ccc(OC(F)(F)F)cc2)n1 (single isomer, unassigned) , report its measured pIC50.
## Output 9.70
